- Test system: K562
- Assay Procedure: Anticancer activity against human K562 cells assessed as cell growth inhibition measured after 48 hrs by MTT assay
- Type: functional, cell-based
- Test Settings: Homo sapiens, K562, 48 h; read-out: IC50
Provide the recorded IC50 for the entries that follow.

Would you please look over these solved cases?
Molecule	IC50
O=C(COc1cc(OCC(=O)NCCOC(=O)CCCc2ccc(N(CCCl)CCCl)cc2)c(C(c2ccc(C(c3cc(Cl)c(OCC(=O)NCCOC(=O)CCCc4ccc(N(CCCl)CCCl)cc4)cc3OCC(=O)NCCOC(=O)CCCc3ccc(N(CCCl)CCCl)cc3)c3cc(Cl)c(OCC(=O)NCCOC(=O)CCCc4ccc(N(CCCl)CCCl)cc4)cc3OCC(=O)NCCOC(=O)CCCc3ccc(N(CCCl)CCCl)cc3)cc2)c2cc(Cl)c(OCC(=O)NCCOC(=O)CCCc3ccc(N(CCCl)CCCl)cc3)cc2OCC(=O)NCCOC(=O)CCCc2ccc(N(CCCl)CCCl)cc2)cc1Cl)NCCOC(=O)CCCc1ccc(N(CCCl)CCCl)cc1	51.4 µM
CC(C)Cc1ccc(C(C)C(=O)OCCNC(=O)COc2cc(OCC(=O)NCCOC(=O)C(C)c3ccc(CC(C)C)cc3)c(C(c3ccc(C(c4cc(Cl)c(OCC(=O)NCCOC(=O)C(C)c5ccc(CC(C)C)cc5)cc4OCC(=O)NCCOC(=O)C(C)c4ccc(CC(C)C)cc4)c4cc(Cl)c(OCC(=O)NCCOC(=O)C(C)c5ccc(CC(C)C)cc5)cc4OCC(=O)NCCOC(=O)C(C)c4ccc(CC(C)C)cc4)cc3)c3cc(Cl)c(OCC(=O)NCCOC(=O)C(C)c4ccc(CC(C)C)cc4)cc3OCC(=O)NCCOC(=O)C(C)c3ccc(CC(C)C)cc3)cc2Cl)cc1 (stereo unspecified)	> 1000 µM
O=C(O)CCCc1ccc(N(CCCl)CCCl)cc1 [CHLORAMBUCIL]	103 µM

Go through the list and state IC50 for each entry.
1. COc1ccc2cc([C@H](C)C(=O)O)ccc2c1 [NAPROXEN]
2. CC(C)Cc1ccc(C(C)C(=O)O)cc1 (stereo unspecified) [IBUPROFEN]

Resp:
1: 181 µM; 2: > 1000 µM

Req: Would you kindly share the measured IC50 for COc1ccc2c(c1)c(CC(=O)O)c(C)n2C(=O)c1ccc(Cl)cc1 [INDOMETHACIN] ?
Resp: 190 µM

====

- System: PC-3
- Assay Procedure: Anticancer activity against human PC3 cells assessed as cell growth inhibition measured after 48 hrs by MTT assay
- Type: functional, cell-based
- Test Settings: Homo sapiens, PC-3, 48 h; read-out: IC50
pIC50: −log10 of the molar value.
Readout Type: pIC50

// worked examples, pIC50 included
Molecule	Measured Result
O=C(COc1cc(OCC(=O)NCCOC(=O)CCCc2ccc(N(CCCl)CCCl)cc2)c(C(c2ccc(C(c3cc(Cl)c(OCC(=O)NCCOC(=O)CCCc4ccc(N(CCCl)CCCl)cc4)cc3OCC(=O)NCCOC(=O)CCCc3ccc(N(CCCl)CCCl)cc3)c3cc(Cl)c(OCC(=O)NCCOC(=O)CCCc4ccc(N(CCCl)CCCl)cc4)cc3OCC(=O)NCCOC(=O)CCCc3ccc(N(CCCl)CCCl)cc3)cc2)c2cc(Cl)c(OCC(=O)NCCOC(=O)CCCc3ccc(N(CCCl)CCCl)cc3)cc2OCC(=O)NCCOC(=O)CCCc2ccc(N(CCCl)CCCl)cc2)cc1Cl)NCCOC(=O)CCCc1ccc(N(CCCl)CCCl)cc1	4.47
COc1ccc2c(c1)c(CC(=O)O)c(C)n2C(=O)c1ccc(Cl)cc1	< 3.00
CC(C)Cc1ccc(C(C)C(=O)OCCNC(=O)COc2cc(OCC(=O)NCCOC(=O)C(C)c3ccc(CC(C)C)cc3)c(C(c3ccc(C(c4cc(Cl)c(OCC(=O)NCCOC(=O)C(C)c5ccc(CC(C)C)cc5)cc4OCC(=O)NCCOC(=O)C(C)c4ccc(CC(C)C)cc4)c4cc(Cl)c(OCC(=O)NCCOC(=O)C(C)c5ccc(CC(C)C)cc5)cc4OCC(=O)NCCOC(=O)C(C)c4ccc(CC(C)C)cc4)cc3)c3cc(Cl)c(OCC(=O)NCCOC(=O)C(C)c4ccc(CC(C)C)cc4)cc3OCC(=O)NCCOC(=O)C(C)c3ccc(CC(C)C)cc3)cc2Cl)cc1 (stereo unspecified)	< 3.00
COc1ccc2cc([C@H](C)C(=O)O)ccc2c1	< 3.00
CC(C)Cc1ccc(C(C)C(=O)O)cc1 (stereo unspecified)	< 3.00

Req: Param item = O=C(O)CCCc1ccc(N(CCCl)CCCl)cc1 ; retrieve measured pIC50.
Resp: 4.79
